FYI, the data here is from the kinase profiling compilation of Christmann-Franck et al. (2016).

Target: UniProt:Q16513
Sequence (Q16513 whole entry, looked up): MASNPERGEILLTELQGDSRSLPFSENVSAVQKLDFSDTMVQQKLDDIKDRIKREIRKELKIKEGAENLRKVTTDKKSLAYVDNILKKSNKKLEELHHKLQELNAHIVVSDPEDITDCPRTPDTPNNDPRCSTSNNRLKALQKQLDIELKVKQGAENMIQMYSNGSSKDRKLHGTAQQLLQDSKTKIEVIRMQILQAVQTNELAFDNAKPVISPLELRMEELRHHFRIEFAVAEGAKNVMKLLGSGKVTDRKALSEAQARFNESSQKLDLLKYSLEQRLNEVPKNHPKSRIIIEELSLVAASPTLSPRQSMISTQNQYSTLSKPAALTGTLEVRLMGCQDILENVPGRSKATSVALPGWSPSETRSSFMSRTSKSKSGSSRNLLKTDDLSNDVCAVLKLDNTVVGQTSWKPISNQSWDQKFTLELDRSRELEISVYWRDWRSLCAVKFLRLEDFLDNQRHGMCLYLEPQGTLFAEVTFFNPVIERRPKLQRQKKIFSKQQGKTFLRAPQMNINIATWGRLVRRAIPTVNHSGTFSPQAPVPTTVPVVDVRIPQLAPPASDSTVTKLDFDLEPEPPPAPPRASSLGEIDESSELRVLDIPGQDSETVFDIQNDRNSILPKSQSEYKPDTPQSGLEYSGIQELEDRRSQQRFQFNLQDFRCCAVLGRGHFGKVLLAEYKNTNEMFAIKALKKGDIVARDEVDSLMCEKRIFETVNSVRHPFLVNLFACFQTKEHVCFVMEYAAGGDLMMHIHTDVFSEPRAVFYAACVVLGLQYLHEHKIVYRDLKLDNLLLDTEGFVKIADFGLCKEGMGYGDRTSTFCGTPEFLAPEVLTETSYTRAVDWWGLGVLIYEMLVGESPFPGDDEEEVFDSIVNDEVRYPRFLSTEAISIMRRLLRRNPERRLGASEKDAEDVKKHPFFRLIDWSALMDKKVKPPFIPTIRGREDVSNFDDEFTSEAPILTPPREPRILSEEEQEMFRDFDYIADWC
Assay: radiometric filter-binding kinase assay
Conditions: compound 1.0 µM
Readout name: residual activity (%)

The following compounds have reported results that may help.
{"Compound": "O=C(NOC[C@H](O)CO)c1ccc(F)c(F)c1Nc1ccc(I)cc1Cl", "residual activity [%]": 82}
{"Compound": "NC(=O)c1cc2c(-c3cccc(-c4ccccc4)c3)cnc(N)c2s1", "residual activity [%]": 76}
{"Compound": "O=C(O)c1cc(N=Nc2ccc(S(=O)(=O)Nc3ccccn3)cc2)ccc1O", "residual activity [%]": 94}

(I) CCCC(CCC)C(=O)O
(II) COc1ccc2c(c1)c1c3c(c4c5ccccc5n(C)c4c1n2CC(O)CN(C)C)C(=O)NC3=O (configuration not stated)
Q) Lowest residual activity? choose I or II Your choice should be expressed through its label.
A) II
(II: 13%, I: 83%)

(a) NCC(=O)Nc1ccc(-n2nc(C(F)(F)F)cc2-c2ccc3c(ccc4ccccc43)c2)cc1
(b) COc1ccc(-n2ncc3cnc(Nc4cc(OC)c(OC)c(OCCCN5CCN(C)CC5)c4)nc32)cc1
Q) Select the item with the higher value of residual activity from the options a and b listed. Indicate which entry you chose by stating its label.
A) a
(a: 85%, b: 27%)

(I) COc1cc(O)c2c(c1)/C=C/C[C@H](O)[C@H](O)C(=O)/C=C\C[C@H](C)OC2=O
(II) CNC(=O)C1[C@H]2O[C@@](C)([C@@H]1N)n1c3ccccc3c3c4c(c5c6ccccc6n2c5c31)C(=O)NC4 (some centres not stated)
Q) Parameter metric = residual activity. Return the lower-valued option from I and II . Identify your selection by its label.
A) II
